# pKd annotations
Target: integrin alphaV beta3 (Homo sapiens, UniProt P06756;P06756;P05106 P06756:31-889,P06756:891-1048,P05106:27-788)
Sequence (P06756 31-889, chain 1 of 3): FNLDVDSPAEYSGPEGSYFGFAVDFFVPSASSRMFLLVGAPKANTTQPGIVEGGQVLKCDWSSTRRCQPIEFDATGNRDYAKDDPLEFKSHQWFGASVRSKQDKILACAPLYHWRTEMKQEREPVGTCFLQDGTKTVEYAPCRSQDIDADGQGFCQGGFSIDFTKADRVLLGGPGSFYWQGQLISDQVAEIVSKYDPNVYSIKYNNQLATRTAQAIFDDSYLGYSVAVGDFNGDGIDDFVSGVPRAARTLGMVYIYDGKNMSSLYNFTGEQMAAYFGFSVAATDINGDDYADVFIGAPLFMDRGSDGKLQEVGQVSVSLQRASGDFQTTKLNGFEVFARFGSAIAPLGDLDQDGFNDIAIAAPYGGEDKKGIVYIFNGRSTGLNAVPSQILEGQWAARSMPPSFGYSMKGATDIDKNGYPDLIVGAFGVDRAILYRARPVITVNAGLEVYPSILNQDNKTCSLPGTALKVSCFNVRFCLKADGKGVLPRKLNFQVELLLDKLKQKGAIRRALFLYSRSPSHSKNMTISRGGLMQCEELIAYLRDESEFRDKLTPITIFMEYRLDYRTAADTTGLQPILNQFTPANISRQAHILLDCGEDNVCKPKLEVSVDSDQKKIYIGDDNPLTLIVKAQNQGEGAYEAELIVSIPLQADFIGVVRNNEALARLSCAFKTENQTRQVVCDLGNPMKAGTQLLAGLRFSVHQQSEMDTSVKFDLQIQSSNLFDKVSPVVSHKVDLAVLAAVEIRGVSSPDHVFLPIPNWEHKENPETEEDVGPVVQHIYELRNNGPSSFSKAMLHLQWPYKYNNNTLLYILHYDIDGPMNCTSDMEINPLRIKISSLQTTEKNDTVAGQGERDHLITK
Sequence (P06756 891-1048, chain 2 of 3): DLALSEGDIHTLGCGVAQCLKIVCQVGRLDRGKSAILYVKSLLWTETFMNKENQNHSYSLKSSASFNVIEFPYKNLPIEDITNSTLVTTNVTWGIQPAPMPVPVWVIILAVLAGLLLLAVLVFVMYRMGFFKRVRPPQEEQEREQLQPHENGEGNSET
Sequence (P05106 27-788, chain 3 of 3): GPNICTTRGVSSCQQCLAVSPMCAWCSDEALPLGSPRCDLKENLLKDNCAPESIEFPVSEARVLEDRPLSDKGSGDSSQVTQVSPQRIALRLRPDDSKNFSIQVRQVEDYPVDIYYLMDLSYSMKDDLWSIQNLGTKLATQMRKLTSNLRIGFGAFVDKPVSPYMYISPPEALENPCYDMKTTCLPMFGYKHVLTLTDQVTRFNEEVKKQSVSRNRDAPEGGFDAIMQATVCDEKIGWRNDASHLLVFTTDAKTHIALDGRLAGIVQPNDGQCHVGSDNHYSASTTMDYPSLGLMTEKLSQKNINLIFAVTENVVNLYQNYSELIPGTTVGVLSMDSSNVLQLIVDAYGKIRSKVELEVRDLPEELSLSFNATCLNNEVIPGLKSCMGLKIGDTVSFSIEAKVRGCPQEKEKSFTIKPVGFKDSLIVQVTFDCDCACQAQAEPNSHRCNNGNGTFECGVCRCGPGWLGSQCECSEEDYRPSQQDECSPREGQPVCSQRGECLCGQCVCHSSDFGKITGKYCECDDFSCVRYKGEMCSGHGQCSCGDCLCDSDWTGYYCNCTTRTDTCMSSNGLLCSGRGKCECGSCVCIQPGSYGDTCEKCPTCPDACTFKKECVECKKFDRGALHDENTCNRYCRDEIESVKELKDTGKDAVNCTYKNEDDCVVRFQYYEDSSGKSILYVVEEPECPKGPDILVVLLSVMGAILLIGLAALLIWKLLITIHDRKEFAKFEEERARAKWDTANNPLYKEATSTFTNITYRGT
Assay: microtiter plate, streptavidin-AP; Mg2+, Ca2+, Mn2+, pH 7.5, 37 C
Details: label: 5'-biotin
pKd: −log10 of the molar value.

{"Binder": "15.10 (ssRNA, 2'-F C and U) RNA: GGGAGACAAGAAUAAACGCUCAAUUCAACGCUGUUCAAGGGCUUAUAUGAGCGGAUUACCCUUCGACAGGAGGCUCACAACAGGC", "pKd": 7.70}
{"Binder": "15.39 (ssRNA, 2'-F C and U) RNA: GGGAGACAAGAAUAAACGCUCAAUCAAUCUCGGACUAGACUAACGACCUUGGUUGACGCUCAUUCGACAGGAGGCUCACAACAGGC", "pKd": 6.39}
{"Binder": "15.8 (ssRNA, 2'-F C and U) RNA: GGGAGACAAGAAUAAACGCUCAAUUCGACGCUGUUGAAGGGCUUAUACGAGCGGAUUACCCUUCGACAGGAGGCUCACAACAGGC", "pKd": 8.30}
{"Binder": "15.17 (ssRNA, 2'-F C and U) RNA: GGGAGACAAGAAUAAACGCUCAAUUCAACGUUGUCAAAGGGCUUAUACGGGCGGAUUACCCUUCGACAGGAGGCUCACAACAGGC", "pKd": 8.40}
{"Binder": "17.5 (ssRNA, 2'-F C and U) RNA: GGGAGACAAGAAUAAACGCUCAAUUCGACGCUGUGAAGGGCUUAUAUGAGCGGAUACACCCUUCGACAGGAGGCUCACAACAGGC", "pKd": 8.30}

Value source: patent US20020150536
